For each record, write down the corresponding PET hydrolysis.
# assayMethodText: PET hydrolysis, aromatic products released after 48 h (umol product/mg enzyme); higher = more PET depolymerization activity
# conditionNotes: substrate: cryPow; 40 °C; pH 5.5
Numbers only.

| itemSequence | PET hydrolysis |
| --- | --- |
| ADNPYQRGPDPTPQSISAPTGPFATASVTVPRQGNFGGGVIYYPTDTSQGTFGAVAISPGLNGTWPGIAWLGPRLSSQGFVVFGIDTLGLSDSTASRGSQLLAALDYLTQTSSVRTRVDSSRLAVAGHSMGGGGAFEAALRRPALKAAIPNAPFFPGSASNVRVPTLITAMQNDSLVGQNRNAYNGIPAGVEKAYVELAGAGHNQIGQPTTAIARNWIPWLKIFVDSDARYHQFLCPTTDMSGLSQYLNTCPLISTTPPTSSPSAQPTTPGPTGPPPGGACAATYRTVNSWSDGYQGEMTVQAGSSAINGWTVRWTMSGGQTISQVWNGTLVAGSGAAAVRNVAYNGSLAAGASTTFGFISSGTPSATSITCGSP [ESM081] | 17 |
| ATTSYQRGPNPTEQSVRAANGPFAYSQFAIPDAEATGFGEGTIYYPNNTSVGTFGGVVIAPGFNADQNSTVWLGKRLASHGFVAVTITTHELNDQPYERGKQILAALDYLTGQSPAFVRSRLDPARLAAVGHSMGGGGTLFAAAQRPSLKAIVPLAPWALAKNWSNVQVPTMILSGAQDASAPPAEHAEKFYASLTSAPEKAYAKLDVNHVRFAWEHPLIGKLVVSWLKRFVDEDTRYTQFLCPTATGAVLLEYRATCPLG [DP026] | 3 |

Next sequence, PET hydrolysis to be filled in.
Just so you know, measured PET hydrolysis for ADNPYQRGPDPTRTSVAAVNGPFANTSVSVPTGYGFNGGRIYYPTDTSQGTFGAIAISPGYTALFSAELAWMGPWLASHGFVVIGIETNSRNDFDTARGTQLLAALDYLTQQSPVRDRVDPNRLAVSGHSMGGGGALSAAIRRSSLKAVVGIAPYSPSSNLANDRVPTMIFSGQADTVVTPSYATGLYNSLPATTESVYLEVAGADHGFMVGRSNPVMIRTMLPFVKMFIDNDTRYSQFLCPLLDSSGVVTYRSTCPLLPPAPTTPPPTGTPTPTPSSNPTTPPTTPPSTPTA [ESM061] came out at 23
